B1: library; numbered along this chain (parent)
chain: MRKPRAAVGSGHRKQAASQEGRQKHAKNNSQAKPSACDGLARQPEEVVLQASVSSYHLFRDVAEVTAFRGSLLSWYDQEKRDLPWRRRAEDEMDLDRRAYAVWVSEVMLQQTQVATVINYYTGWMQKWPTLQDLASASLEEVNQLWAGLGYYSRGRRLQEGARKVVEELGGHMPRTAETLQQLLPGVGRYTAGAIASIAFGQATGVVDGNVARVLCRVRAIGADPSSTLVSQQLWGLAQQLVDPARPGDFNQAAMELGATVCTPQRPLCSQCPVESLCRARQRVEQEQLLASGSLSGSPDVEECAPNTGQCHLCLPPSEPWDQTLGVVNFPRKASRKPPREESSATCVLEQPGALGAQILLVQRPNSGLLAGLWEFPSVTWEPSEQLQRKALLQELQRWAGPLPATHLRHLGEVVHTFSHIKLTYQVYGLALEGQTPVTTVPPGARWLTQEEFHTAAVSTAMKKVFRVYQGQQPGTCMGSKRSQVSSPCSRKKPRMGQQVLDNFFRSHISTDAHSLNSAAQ

# Variants of: B1
# method-description: 8OG:A repair function score (normalized; synonymous = 0, nonsense = -1) (normalized log-likelihood score); higher = more repair activity (WT-like);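 note: cells sorted at 72 h after reporter transfection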
# particulars: with 8OG:A DNA repair reporter (GFP) in HEK-293 MUTYH KO cells
Output fulfilled for 8OG:A repair function score not less than -0.1; output not fulfilled otherwise.

variant_code=A41R class_label=fulfilled
variant_code=K493T class_label=fulfilled
variant_code=W374K class_label="not fulfilled"
variant_code=T66V class_label=fulfilled

Is the recorded value of 8OG:A repair function score equal to or greater than -0.1 for this variant? `D82L`
fulfilled

Entry `E92K` : is its 8OG:A repair function score no less than -0.1?
fulfilled

Does the variant `A203K` have recorded 8OG:A repair function score that is -0.1 or more?
fulfilled

Quick check: does `L370W` have 8OG:A repair function score greater than or equal to -0.1?
not fulfilled

Test whether the variant `P338R` records 8OG:A repair function score of -0.1 or higher.
fulfilled

Quick check: does `Y76V` have 8OG:A repair function score greater than or equal to -0.1?
not fulfilled

Check if 8OG:A repair function score >= -0.1 (inclusive). Item: `V165Y`
not fulfilled
